Provenance of the data: patent WO2013139956A1

- Tgt: T1, peptide CHNGGLCEEISQEV (SEQ ID NO:83), N-terminally biotinylated (human, cysteine pairing not given here)
- T1 peptide: Biotin-CHNGGLCEEISQEV
- Test protocol: ELISA, biotin-peptide on neutravidin plate, antibody 1 ug/ml
Ends that are not written are not given here. * marks the point of attachment. Biotin = O=C1N[C@H]2[C@H](CS[C@H]2CCCCC(=O)*)N1
Reported property: absorbance 450 nm minus 540 nm (absorbance)
# unit: absorbance | format: bare number

Prompt line: Please look up its absorbance 450 nm minus 540 nm: anti-lactadherin antibody 416H9 (antibody, IgG1, V domains shown, also called hybridoma 416H9; LMBP 9492CB) VH: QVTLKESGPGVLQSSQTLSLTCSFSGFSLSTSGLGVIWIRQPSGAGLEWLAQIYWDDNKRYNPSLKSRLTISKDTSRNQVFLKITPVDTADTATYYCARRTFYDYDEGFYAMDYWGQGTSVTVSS VL: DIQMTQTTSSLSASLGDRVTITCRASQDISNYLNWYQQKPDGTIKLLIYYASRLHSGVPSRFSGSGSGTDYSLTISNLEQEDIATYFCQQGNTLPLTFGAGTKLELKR
Response line: 0.03

Prompt line: What does the record list as absorbance 450 nm minus 540 nm for anti-lactadherin antibody 311A7 (antibody, IgG1, V domains shown, also called murine 311A7; hybridoma 311A7) VH: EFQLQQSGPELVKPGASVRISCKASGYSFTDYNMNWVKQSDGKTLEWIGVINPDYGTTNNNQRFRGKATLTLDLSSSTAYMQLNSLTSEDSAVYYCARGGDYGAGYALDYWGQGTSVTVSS VL: QIVLTQSPAIMSASPGEKVTITCSASSSVSYMYWFQQKPGTSPKLWIYSTSNLASGVPARFSGSGSGTSYSLTISRMEAEDAATYYCQQRSSYPRTFGGGTKLEIKR ?
Response line: 0.02

Prompt line: Entry under review: anti-lactadherin antibody 346B6 (antibody, IgG1, V domains shown, VH identical to that of 311A7; also called hybridoma 346B6; LMBP 9490CB) VH: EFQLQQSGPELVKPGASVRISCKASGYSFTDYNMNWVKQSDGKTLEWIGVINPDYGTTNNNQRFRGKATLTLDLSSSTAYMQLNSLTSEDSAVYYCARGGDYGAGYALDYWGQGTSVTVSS VL: QIVLTQSPAIMSASPGEKVTMTCSASSSVSYMYWYQQKPGSSPRLLIYDTSNLASGVPVRFSGSGSGTSYSLTISRMEAEDAATYYCQQWSSYPPTFGAGTKLELKR . Reported absorbance 450 nm minus 540 nm?
Response line: 0.02
